# Tested on: Mycobacterium leprae
# Experimental details: Anti-leprotic activity against Mycobacterium leprae assessed as maximum bactericidal dilutions
# Format: functional
Catalogue of fold change (FC) values
I'd appreciate a reply containing only the number, no unit.

Molecule: CCCCCCCCC(C(=O)O)C1CCCCC1 (centres undefined)
Property name: fold change (FC)
Readout value: 110

Molecule: CCCCCCCCCCC(C(=O)O)C1C=CCC1 (centres undefined)
Property name: fold change (FC)
Readout value: 167

Molecule: CCCCCCCCCCCC(C(=O)O)C1CCCC1 (centres undefined)
Property name: fold change (FC)
Readout value: 153

Molecule: CCCCCCCCCC(C(=O)O)C1C=CCC1 (centres undefined)
Property name: fold change (FC)
Readout value: 150

Molecule: CCCCCCCC(CCC1CCCCC1)C(=O)O (centres undefined)
Property name: fold change (FC)
Readout value: 160

Molecule: CCCCCCCCCC(C(=O)O)C1CCCCC1 (centres undefined)
Property name: fold change (FC)
Readout value: 190

Molecule: CCCCCCC(CCC1CCCC1)C(=O)O (centres undefined)
Property name: fold change (FC)
Readout value: 320

Molecule: CCCCCCCCC(CCC1CCCC1)C(=O)O (centres undefined)
Property name: fold change (FC)
Readout value: 180

Prompt: For the record CCCCCCCC(CCC1CCCC1)C(=O)O (centres undefined) , what value of fold change (FC) is listed for Mycobacterium leprae?
Response: 170

---

# System: Enterococcus faecalis
# Experimental details: Antimicrobial activity against Enterococcus faecalis ATCC 51922 by broth microdilution assay
# Assay type: functional
Property name: MIC (µg/mL)
Only the number, expressed in µg/mL, is required.

Compound: O=C(N[C@H](CO)[C@H](O)c1ccc([N+](=O)[O-])cc1)C(Cl)Cl [CHLORAMPHENICOL]
Property name: MIC
Readout value: 200
--
Compound: COc1ccc(/C=N/NC(=S)Nc2ccc(C(F)(F)F)cc2)cc1
Property name: MIC
Readout value: 400
--
Compound: FC(F)(F)c1ccc(NC(=S)N/N=C/c2ccc(Br)cc2)cc1
Property name: MIC
Readout value: 400
--
Compound: N#Cc1ccc(/C=N/NC(=S)Nc2ccc(C(F)(F)F)cc2)cc1
Property name: MIC
Readout value: 400
--
Compound: Cc1ccc(/C=N/NC(=S)Nc2ccc(C(F)(F)F)cc2)cc1
Property name: MIC
Readout value: 400

Prompt: Would you mind telling me what MIC value was observed for `FC(F)(F)c1ccc(NC(=S)N/N=C/c2ccccc2)cc1` ?
Response: 400

Prompt: Would you mind telling me what MIC value was observed for `Fc1ccc(/C=N/NC(=S)Nc2ccc(C(F)(F)F)cc2)cc1` ?
Response: 1600

Prompt: Would you mind telling me what MIC value was observed for `FC(F)(F)c1ccc(NC(=S)N/N=C/c2ccc(Cl)cc2)cc1` ?
Response: 400
